STUDY_TARGET: glucocorticoid receptor (GR) (Homo sapiens, UniProt P04150)
Sequence (P04150 whole entry): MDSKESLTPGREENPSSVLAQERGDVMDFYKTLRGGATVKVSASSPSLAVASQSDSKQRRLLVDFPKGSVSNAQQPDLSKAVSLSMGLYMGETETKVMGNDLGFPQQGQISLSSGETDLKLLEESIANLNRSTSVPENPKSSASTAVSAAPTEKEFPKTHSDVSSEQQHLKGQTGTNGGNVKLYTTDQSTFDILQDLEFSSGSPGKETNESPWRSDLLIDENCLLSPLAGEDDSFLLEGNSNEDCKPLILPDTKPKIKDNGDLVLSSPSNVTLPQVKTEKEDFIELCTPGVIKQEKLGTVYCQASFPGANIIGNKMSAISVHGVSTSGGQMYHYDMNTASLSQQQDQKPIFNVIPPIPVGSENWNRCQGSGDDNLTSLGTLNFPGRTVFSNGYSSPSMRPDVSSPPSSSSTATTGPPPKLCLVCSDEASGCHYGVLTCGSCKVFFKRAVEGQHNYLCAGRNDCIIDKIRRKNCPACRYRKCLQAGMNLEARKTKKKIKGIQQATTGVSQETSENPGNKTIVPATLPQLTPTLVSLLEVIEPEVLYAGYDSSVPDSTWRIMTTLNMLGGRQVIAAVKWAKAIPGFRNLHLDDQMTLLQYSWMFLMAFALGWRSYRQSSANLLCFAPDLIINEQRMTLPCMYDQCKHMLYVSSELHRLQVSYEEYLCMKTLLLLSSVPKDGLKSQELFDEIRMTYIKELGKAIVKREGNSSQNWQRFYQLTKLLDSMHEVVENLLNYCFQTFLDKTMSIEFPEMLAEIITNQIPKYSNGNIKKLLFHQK
EXPERIMENT_SUMMARY: Ligand binding assay (GR BIND), 3H-dexamethasone displacement in MDA-MB-453 cell lysate
ASSAY_CONTEXT: GR BIND Ki, Table 1
pKi: −log10 of the molar value.
REPORTED_METRIC: pKi

Would you please look over these solved cases?
| COMPOUND | STUDY_TARGET | MEASUREMENT |
| --- | --- | --- |
| C[C@]12Cc3cnn(-c4ccc(F)cc4)c3C=C1CC[C@@H]2C(=O)N(CCO)CC(O)C(F)(F)F (stereo partly shown) | glucocorticoid receptor (GR) (Homo sapiens, UniProt P04150) | 7.90 |
| CN(Cc1cccc(C(F)(F)F)c1)C(=O)[C@H]1CCC2=Cc3c(cnn3-c3ccc(F)cc3)C[C@@]21C | glucocorticoid receptor (GR) (Homo sapiens, UniProt P04150) | 7.75 |
| CCCN(C[C@H](C)O)C(=O)[C@H]1CCC2=Cc3c(cnn3-c3ccc(F)cc3)C[C@@]21C | glucocorticoid receptor (GR) (Homo sapiens, UniProt P04150) | 8.33 |
| CCCCN(CC(O)C(F)(F)F)C(=O)[C@H]1CCC2=Cc3c(cnn3-c3ccccc3)C[C@@]21C (stereo partly shown) | glucocorticoid receptor (GR) (Homo sapiens, UniProt P04150) | 8.42 |
| CCCCN(CCC)C(=O)[C@H]1CCC2=Cc3c(cnn3-c3ccc(F)cc3)C[C@@]21C | glucocorticoid receptor (GR) (Homo sapiens, UniProt P04150) | 8.60 |

I. CN(CC#N)C(=O)[C@H]1CCC2=Cc3c(cnn3-c3ccc(F)cc3)C[C@@]21C
II. CCCN(CC1CC1)C(=O)[C@H]1CCC2=Cc3c(cnn3-c3ccc(F)cc3)C[C@@]21C
III. CC(C)CN(CC(O)C(F)(F)F)C(=O)[C@H]1CCC2=Cc3c(cnn3-c3ccccc3)C[C@@]21C (stereo partly shown)
IV. COc1cc(CN(CCO)C(=O)[C@H]2CCC3=Cc4c(cnn4-c4ccc(F)cc4)C[C@@]32C)cc(OC)c1
Query block: Please list the entries, largest pKi first. Order the labels as requested and list them.
Result block: II, III, IV, I

----------
STUDY_TARGET: Glucocorticoid Receptor (Homo sapiens)
Construct: These cells express large amount of the GR and are very responsive to GC treatment; endogenous in cells; host or cells: A549 cells transiently transfected with the MMTV-LUC reporter
Sequence (P04150 whole entry): as above
EXPERIMENT_SUMMARY: Trans-Activation Modulation of Glucocorticoid Receptor (GRAMMER), MMTV-LUC reporter gene in A549 cells
Assay type: cell-based
ASSAY_CONTEXT: A549, A549 cells; Emax relative to 300 nM dexamethasone; Table 1; read-out: Transactivation A549 Cells GRAMMER Emax
REPORTED_METRIC: Emax (%)

| COMPOUND | STUDY_TARGET | MEASUREMENT |
| --- | --- | --- |
| CN(Cc1cccc(C(F)(F)F)c1)C(=O)[C@H]1CCC2=Cc3c(cnn3-c3ccc(F)cc3)C[C@@]21C | Glucocorticoid Receptor (Homo sapiens) | 2.6 |
| CCCCN(CCC)C(=O)[C@H]1CCC2=Cc3c(cnn3-c3ccc(F)cc3)C[C@@]21C | Glucocorticoid Receptor (Homo sapiens) | 44.1 |
| CO[C@H](C)CN(C)C(=O)[C@H]1CCC2=Cc3c(cnn3-c3ccc(F)cc3)C[C@@]21C | Glucocorticoid Receptor (Homo sapiens) | 3.7 |

A. C[C@]12Cc3cnn(-c4ccc(F)cc4)c3C=C1CC[C@@H]2C(=O)N1CCCC(=O)CC1
B. COc1ccccc1CCN(CC(O)C(F)(F)F)C(=O)[C@H]1CCC2=Cc3c(cnn3-c3ccc(F)cc3)C[C@@]21C (stereo partly drawn)
C. C[C@]12Cc3cnn(-c4ccccc4)c3C=C1CC[C@@H]2C(=O)N(CC1CC1)CC(O)C(F)(F)F (stereo partly drawn)
Query block: Rank descending by Emax. Output spec: a listing of the labels in the requested order.
Result block: C, B, A
(C: 67.8%, B: 21.6%, A: 5.3%)
